MEASUREMENT DESCRIPTION: Tissue distribution after single oral administration in rats
Type: in vivo, rat
CONDITION INFO: rat; liver, 100 mg/kg PO, male Wistar rats, Estimated Value
MEASURED PROPERTY: Tmax (h)
Could you give me the number in h? Just the number is fine.

Can you look up the measured Tmax of COc1cc(Nc2ncnc(Nc3cc4c(cn3)NC(=O)C(C)(C)O4)n2)cc(OC)c1OC [MT-SYK-03] for me? 2

====

MEASUREMENT DESCRIPTION: Pharmacokinetics after single oral administration to rats
Type: in vivo, rat
CONDITION INFO: male, Wistar, rat, plasma, oral, 100 mg/kg, Table S7, 100 mg/kg PO, male Wistar rats, 2 h, mean of Rat#7-12; read-out: Plasma concentration, Mean
MEASURED PROPERTY: concentration at 2 h (ng/mL)
Could you give me the number in ng/mL? Just the number is fine.

Can you look up the measured concentration at 2 h of `COc1cc(Nc2ncnc(Nc3cc4c(cn3)NC(=O)C(C)(C)O4)n2)cc(OC)c1OC` for me? 602
